Form field: HDAC Inhibition % (1 μM) (one value per entry).
Test system: HDAC (Mouse Liver Extract)
Construct: Mouse liver enzyme (10 mg/ml) was diluted 1:6 with HDAC buffer
Test: HDAC inhibition assay using Boc-Lys(Ac)-AMC substrate, mouse liver enzyme
Type: biochemical
Conditions: 1 μM
Number in %, nothing else.

Completed entries (count: 5):
INSERT INTO measurements (given_smiles, experimental_system, value_measured) VALUES
  ('O=C(/C=C/c1ccc(/C=C(/C(=O)NC2CC2)c2ccccc2Cl)cc1)NCc1ccc(C(=O)NO)cc1', 'HDAC (Mouse Liver Extract)', 94.6),
  ('Nc1ccc(-c2ccccc2)cc1NC(=O)c1ccc(/C=C(/C(=O)NC2CC2)c2ccc(F)cc2)cc1', 'HDAC (Mouse Liver Extract)', 23.5),
  ('COc1cccc(/C(=C\c2ccc(/C=C/C(=O)NCCCCCC(=O)NO)cc2)C(=O)NC2CC2)c1', 'HDAC (Mouse Liver Extract)', 96.0),
  ('Nc1ccccc1NC(=O)c1ccc(/C=C(/C(=O)NC2CC2)c2ccc3c(c2)OCO3)cc1', 'HDAC (Mouse Liver Extract)', 24.8),
  ('COc1ccc(/C(=C\c2ccc(/C=C/C(=O)NCCCCCC(=O)NO)cc2)C(=O)NC2CC2)cc1', 'HDAC (Mouse Liver Extract)', 93.5);

Requested read-out: HDAC Inhibition % (1 μM). Entry: "NC(=O)/C(=C/c1ccc(/C=C/C(=O)NO)cc1)c1ccc(F)cc1"
80.5

Requested read-out: HDAC Inhibition % (1 μM). Entry: "Nc1ccccc1NC(=O)c1ccc(/C=C(/C(=O)NC2CC2)c2cccc(Cl)c2)cc1"
34.5

Requested read-out: HDAC Inhibition % (1 μM). Entry: "Cc1ccc(/C(=C\c2ccc(C(=O)NO)cc2)C(=O)NC2CC2)cc1"
40.2
